- System: 186277-243-T-J2-PDC complex spheroid growth
- Protocol Description: Anticancer human tumor 186277-243-T-J2-PDC patient-derived colon adenocarcinoma cell line growth inhibition [AhR]
- Condition Summary: second compound 0.316 µM; first compound 0.0316 µM; stronger effect = lower value
Observable: viability, T/C (%)

1. CC1(C)CCC(CN2CCN(c3ccc(C(=O)NS(=O)(=O)c4ccc(NCC5CCOCC5)c([N+](=O)[O-])c4)c(Oc4cnc5[nH]ccc5c4)c3)CC2)=C(c2ccc(Cl)cc2)C1 + Cc1ccccc1N=Nc1ccc(NC(=O)c2ccnn2C)c(C)c1
94.1
2. Nc1ccccc1NC(=O)c1ccc(CNC(=O)OCc2cccnc2)cc1 + Cc1cncc(-c2nc(NCCc3c[nH]c4ccccc34)c3ncn(C(C)C)c3n2)c1
101
3. COc1ccc([C@@H](O)c2cc(-c3ncnc4cc(N5CCOCC5)ccc34)c(F)cc2Cl)nn1 + CC(CO)NC(=O)c1cc(-c2ccc(Cl)cc2)nn(-c2cnn(C)c2)c1=O
109
4. O=C(c1cc(Cc2n[nH]c(=O)c3ccccc23)ccc1F)N1CCN(C(=O)C2CC2)CC1 + CC(CO)NC(=O)c1cc(-c2ccc(Cl)cc2)nn(-c2cnn(C)c2)c1=O
96.3
5. COc1cc(Nc2ncc3c(n2)-c2ccc(Cl)cc2C(c2c(F)cccc2OC)=NC3)ccc1C(=O)O + CC(CO)NC(=O)c1cc(-c2ccc(Cl)cc2)nn(-c2cnn(C)c2)c1=O
26.1
6. O=C(C=Cc1cccc(S(=O)(=O)Nc2ccccc2)c1)NO + CC(CO)NC(=O)c1cc(-c2ccc(Cl)cc2)nn(-c2cnn(C)c2)c1=O
92.5

---

- Tested on: 186277-243-T-J2-PDC complex spheroid growth
- Protocol Description: Anticancer human tumor 186277-243-T-J2-PDC cell line growth inhibition [AhR]
- Condition Summary: second compound 0.1 µM; first compound 0.000316 µM; stronger effect = lower value
- From the text: Multicellular complex tumor spheroid response to aryl hydrocarbon receptor antagonists in combination with a variety of drugs and investigational agents in selected tumor cell lines […] Compounds. […] If the clinical Cmax for an agent had not been determined, the highest concentration tested was 10 microM (Table 1). […]
Item-by-item account of viability, T/C
Observable: viability, T/C (%)

1. CC[C@@]1(O)C(=O)OCc2c1cc1n(c2=O)Cc2cc3c(CN(C)C)c(O)ccc3nc2-1 + Cc1cncc(-c2nc(NCCc3c[nH]c4ccccc34)c3ncn(C(C)C)c3n2)c1
98.8
2. Cn1ncnc1C1c2n[nH]c(=O)c3cc(F)cc(c23)NC1c1ccc(F)cc1 (stereo unspecified) + CC(CO)NC(=O)c1cc(-c2ccc(Cl)cc2)nn(-c2cnn(C)c2)c1=O
103
3. CC[C@@]1(O)C(=O)OCc2c1cc1n(c2=O)Cc2cc3c(CN(C)C)c(O)ccc3nc2-1 + CC(CO)NC(=O)c1cc(-c2ccc(Cl)cc2)nn(-c2cnn(C)c2)c1=O
101
4. Cn1ncnc1C1c2n[nH]c(=O)c3cc(F)cc(c23)NC1c1ccc(F)cc1 (stereo unspecified) + Cc1ccccc1N=Nc1ccc(NC(=O)c2ccnn2C)c(C)c1
107
5. CC[C@@]1(O)C(=O)OCc2c1cc1n(c2=O)Cc2cc3c(CN(C)C)c(O)ccc3nc2-1 + Cc1ccccc1N=Nc1ccc(NC(=O)c2ccnn2C)c(C)c1
97.7
6. Cn1ncnc1C1c2n[nH]c(=O)c3cc(F)cc(c23)NC1c1ccc(F)cc1 (stereo unspecified) + Cc1cncc(-c2nc(NCCc3c[nH]c4ccccc34)c3ncn(C(C)C)c3n2)c1
89

---

- Test system: 186277-243-T-J2-PDC complex spheroid growth
- Protocol Description: Anticancer human tumor 186277-243-T-J2-PDC cell line growth inhibition [AhR];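 also: luminescent signal used as a stand-in for viable cell amount; spheroids exposed to compounds for seven days before the viability read; 100% = DMSO vehicle control wells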
- Condition Summary: second compound 3.16 µM; first compound 1 µM; stronger effect = lower value
This listing pairs molecules with measured viability, T/C.
Observable: viability, T/C (%)

1. CC1(C)CCC(CN2CCN(c3ccc(C(=O)NS(=O)(=O)c4ccc(NCC5CCOCC5)c([N+](=O)[O-])c4)c(Oc4cnc5[nH]ccc5c4)c3)CC2)=C(c2ccc(Cl)cc2)C1 + Cc1cncc(-c2nc(NCCc3c[nH]c4ccccc34)c3ncn(C(C)C)c3n2)c1
103
2. O=C(C=Cc1cccc(S(=O)(=O)Nc2ccccc2)c1)NO + CC(CO)NC(=O)c1cc(-c2ccc(Cl)cc2)nn(-c2cnn(C)c2)c1=O
8.38
3. COc1ccc([C@@H](O)c2cc(-c3ncnc4cc(N5CCOCC5)ccc34)c(F)cc2Cl)nn1 + Cc1ccccc1N=Nc1ccc(NC(=O)c2ccnn2C)c(C)c1
79.8

---

- System: 186277-243-T-J2-PDC complex spheroid growth
- Protocol Description: Anticancer human tumor 186277-243-T-J2-PDC cell line growth inhibition [AhR];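 also: luminescent signal used as a stand-in for viable cell amount; spheroids exposed to compounds for seven days before the viability read; 100% = DMSO vehicle control wells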
- Condition Summary: second compound 10 µM; first compound 0.0316 µM; stronger effect = lower value
Observable: viability, T/C (%)

1) COc1cc(C2c3cc4c(cc3C(OC3OC5COC(C)OC5C(O)C3O)C3COC(=O)C23)OCO4)cc(OC)c1O (stereo not drawn) + CC(CO)NC(=O)c1cc(-c2ccc(Cl)cc2)nn(-c2cnn(C)c2)c1=O
68.3
2) Cn1ncnc1C1c2n[nH]c(=O)c3cc(F)cc(c23)NC1c1ccc(F)cc1 (stereo not drawn) + CC(CO)NC(=O)c1cc(-c2ccc(Cl)cc2)nn(-c2cnn(C)c2)c1=O
61.9
3) COc1cc(C2c3cc4c(cc3C(OC3OC5COC(C)OC5C(O)C3O)C3COC(=O)C23)OCO4)cc(OC)c1O (stereo not drawn) + Cc1ccccc1N=Nc1ccc(NC(=O)c2ccnn2C)c(C)c1
102

---

The following compounds are listed with their measured viability, T/C values.
- Test system: 186277-243-T-J2-PDC complex spheroid growth
- Protocol Description: Anticancer human tumor 186277-243-T-J2-PDC cell line growth inhibition [AhR];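 also: luminescent signal used as a stand-in for viable cell amount; spheroids exposed to compounds for seven days before the viability read; 100% = DMSO vehicle control wells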
- Condition Summary: second compound 0.316 µM; first compound 1 µM; stronger effect = lower value
Observable: viability, T/C (%)

1) COc1cc(C2c3cc4c(cc3C(OC3OC5COC(C)OC5C(O)C3O)C3COC(=O)C23)OCO4)cc(OC)c1O (configuration not stated) + Cc1ccccc1N=Nc1ccc(NC(=O)c2ccnn2C)c(C)c1
96.1
2) CC1COCCN1c1cc(-c2ccnn2C)c2ccnc(-c3ccn[nH]3)c2n1 (configuration not stated) + CC(CO)NC(=O)c1cc(-c2ccc(Cl)cc2)nn(-c2cnn(C)c2)c1=O
2.25
3) O=C(C=Cc1cccc(S(=O)(=O)Nc2ccccc2)c1)NO + CC(CO)NC(=O)c1cc(-c2ccc(Cl)cc2)nn(-c2cnn(C)c2)c1=O
10.1
4) Nc1ccccc1NC(=O)c1ccc(CNC(=O)OCc2cccnc2)cc1 + CC(CO)NC(=O)c1cc(-c2ccc(Cl)cc2)nn(-c2cnn(C)c2)c1=O
32.9
5) COc1ccc([C@@H](O)c2cc(-c3ncnc4cc(N5CCOCC5)ccc34)c(F)cc2Cl)nn1 + Cc1cncc(-c2nc(NCCc3c[nH]c4ccccc34)c3ncn(C(C)C)c3n2)c1
104
6) COc1cccc2c1C(=O)c1c(O)c3c(c(O)c1C2=O)CC(O)(C(=O)CO)CC3OC1CC(N)C(O)C(C)O1 (configuration not stated) + Cc1ccccc1N=Nc1ccc(NC(=O)c2ccnn2C)c(C)c1
4.18
7) COc1cc(Nc2ncc3c(n2)-c2ccc(Cl)cc2C(c2c(F)cccc2OC)=NC3)ccc1C(=O)O + Cc1ccccc1N=Nc1ccc(NC(=O)c2ccnn2C)c(C)c1
108
8) CC1COCCN1c1cc(C2(S(C)(=N)=O)CC2)nc(-c2ccnc3[nH]ccc23)n1 (configuration not stated) + Cc1cncc(-c2nc(NCCc3c[nH]c4ccccc34)c3ncn(C(C)C)c3n2)c1
106
9) Nc1ncn(C2CC(O)C(CO)O2)c(=O)n1 (configuration not stated) + Cc1ccccc1N=Nc1ccc(NC(=O)c2ccnn2C)c(C)c1
144
10) COc1cc(C2c3cc4c(cc3C(OC3OC5COC(C)OC5C(O)C3O)C3COC(=O)C23)OCO4)cc(OC)c1O (configuration not stated) + Cc1cncc(-c2nc(NCCc3c[nH]c4ccccc34)c3ncn(C(C)C)c3n2)c1
53.4
11) Nc1ncn(C2CC(O)C(CO)O2)c(=O)n1 (configuration not stated) + Cc1cncc(-c2nc(NCCc3c[nH]c4ccccc34)c3ncn(C(C)C)c3n2)c1
150
12) COc1cccc2c1C(=O)c1c(O)c3c(c(O)c1C2=O)CC(O)(C(=O)CO)CC3OC1CC(N)C(O)C(C)O1 (configuration not stated) + CC(CO)NC(=O)c1cc(-c2ccc(Cl)cc2)nn(-c2cnn(C)c2)c1=O
0.08

---

- System: 186277-243-T-J2-PDC complex spheroid growth
- Protocol Description: Anticancer human tumor 186277-243-T-J2-PDC cell line growth inhibition [AhR];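 also: luminescent signal used as a stand-in for viable cell amount; spheroids exposed to compounds for seven days before the viability read; 100% = DMSO vehicle control wells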
- Condition Summary: second compound 3.16 µM; first compound 0.0316 µM; stronger effect = lower value
Could you please mark yes (1) for values of viability, T/C below 90% and no (0) for values at or above it?

1. Nc1ccccc1NC(=O)c1ccc(CNC(=O)OCc2cccnc2)cc1 + CC(CO)NC(=O)c1cc(-c2ccc(Cl)cc2)nn(-c2cnn(C)c2)c1=O
yes (1)
2. Nc1ncn(C2CC(O)C(CO)O2)c(=O)n1 (stereo unspecified) + CC(CO)NC(=O)c1cc(-c2ccc(Cl)cc2)nn(-c2cnn(C)c2)c1=O
no (0)
3. COc1cc(Nc2ncc3c(n2)-c2ccc(Cl)cc2C(c2c(F)cccc2OC)=NC3)ccc1C(=O)O + CC(CO)NC(=O)c1cc(-c2ccc(Cl)cc2)nn(-c2cnn(C)c2)c1=O
yes (1)
4. COc1ccc([C@@H](O)c2cc(-c3ncnc4cc(N5CCOCC5)ccc34)c(F)cc2Cl)nn1 + Cc1cncc(-c2nc(NCCc3c[nH]c4ccccc34)c3ncn(C(C)C)c3n2)c1
no (0)
5. COc1cccc2c1C(=O)c1c(O)c3c(c(O)c1C2=O)CC(O)(C(=O)CO)CC3OC1CC(N)C(O)C(C)O1 (stereo unspecified) + Cc1ccccc1N=Nc1ccc(NC(=O)c2ccnn2C)c(C)c1
no (0)
